Task for the reader: assign each of the following substances its reported amyloid nucleation score.
Method: amyloid nucleation score (Sup35N fusion, yeast selection) (log enrichment); library NNK1; higher = more nucleation; inactive = no reads after selection;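 also: zero at mode of non-aggregating sequences after 7 days selection at 30°C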
I only need the number, thanks.

Give amyloid nucleation score for TYDVMTLGENVKGLCISARC
-0.412

Give amyloid nucleation score for VFYKYRQGARYDFF
0.227

Give amyloid nucleation score for FERCLNPGYCINFAGCESVV
0.581

Give amyloid nucleation score for VLFESIRWMSG
-0.142

Give amyloid nucleation score for RLSHRM
-0.994

Give amyloid nucleation score for GMMHFGCGFSFWWNNFRQWW
2.49

Give amyloid nucleation score for NKKESGWY
-0.387

Give amyloid nucleation score for NSRSVVLMSVDFIILGYDKM
3.56

Give amyloid nucleation score for LSSDADFKNNSLFRESDKYV
-0.297

---

Method: amyloid nucleation score (Sup35N fusion, yeast selection) (log enrichment); library NNK1; higher = more nucleation; inactive = no reads after selection
Measured Metric: amyloid nucleation score
I only need the number, thanks.

Give amyloid nucleation score for NRLCDK
1.25

Give amyloid nucleation score for VSSFWRELVPYGMVCRESSL
0.178

Give amyloid nucleation score for FTWMRYQKHEGHFI
-0.447

Give amyloid nucleation score for FTLRSDVAQQVIDDMGAVGS
-1.11

Give amyloid nucleation score for PFYRNLFSWAGYILLCGCHE
-0.775

Give amyloid nucleation score for IGRMSYWGCRTLNNSPCGKF
-1.22

Give amyloid nucleation score for REPVCICLIAAYGRAKPPTG
0.382

Give amyloid nucleation score for QFEDLHQLYSMCALPDSTKH
-0.366

Give amyloid nucleation score for SVMFQECFVNEFIGVHRCRD
6.32

Give amyloid nucleation score for FALLFRLFRW
0.539

Give amyloid nucleation score for ASGVWRQ
-0.47

Give amyloid nucleation score for SGAYLKASYTSPSVRVFLVL
2.75

Give amyloid nucleation score for VYSRSWPGFLKWLLASIFF
0.694

Give amyloid nucleation score for VDSRSWTNLMWSRVAKWLMG
0.155

Give amyloid nucleation score for VPVYNMNFYAVLHILSFCLD
4.18

Give amyloid nucleation score for TKLKNWGLNLGMASGNQSDR
-0.725

Give amyloid nucleation score for WLAHRNWLC
0.103

Give amyloid nucleation score for QVIEKFVAGCEGQKR
2.31

Give amyloid nucleation score for IKFERAIRSSVGKQRC
0.784

Give amyloid nucleation score for QNPWNGILLAKNWRDKMLRN
0.3

Give amyloid nucleation score for KSGSKCRLRGSDNSNRLSVM
-0.335

Give amyloid nucleation score for TLNKARSDYFLKRSSE
-0.025

Give amyloid nucleation score for ARIEFSGWFHPQLDLVFFVQ
1.97

Give amyloid nucleation score for RYIRLRMFLCLFYLMCLPRR
-1.25

Give amyloid nucleation score for YTSIGI
-0.144

Give amyloid nucleation score for INNHKIDQTML
-0.541

Give amyloid nucleation score for FRPSRHNAQPMFHSKPSRAF
-0.636

Give amyloid nucleation score for TCWVGYYVCW
-0.336

Give amyloid nucleation score for SLNRWGVFLCEVALRLADGR
0.542

Give amyloid nucleation score for RCDLARVLLMGRWLGPNAVW
-0.359

Give amyloid nucleation score for VITWEWFRFRRRFGKMEGCL
1.24

Give amyloid nucleation score for IEVKSWYATPNFGSQLSKRD
0.274

Give amyloid nucleation score for TGRMGLTNRSEEFLSFLADS
-1.45

Give amyloid nucleation score for FGYTVFIDFVSSGMMRFGGQ
0.784

Give amyloid nucleation score for FYRQFHHLGEDPLH
-0.583

Give amyloid nucleation score for LSSTLCSIVF
0.051

Give amyloid nucleation score for RDSRDLMCFVRLPLDRISK
-0.101

Give amyloid nucleation score for SGGYLADYPLRVNLLFFNFV
0.431

Give amyloid nucleation score for GVDRVQCVFLSRVEWLGTPG
0.198

Give amyloid nucleation score for NRPGEINKWSTLIDGVTRFS
0.335

Give amyloid nucleation score for YHIGTVVIPWLKVNRIYRGI
4.96

Give amyloid nucleation score for FIITWILTKNMKLGEVYSIS
-0.132

Give amyloid nucleation score for LWRNKTHISVLQRGQVYHQT
0.182

Give amyloid nucleation score for VSTGWKRLKFQLVIGCFS
0.502

Give amyloid nucleation score for CRQVFLFLVVPKYYNRMLST
-0.251

Give amyloid nucleation score for LKTWVDFRDYLLAPKAVCIY
0.161

Give amyloid nucleation score for CRPVGSTVVSVDNGTS
-0.188

Give amyloid nucleation score for RVGILRMYSMFQFFKSLQWI
-0.372

Give amyloid nucleation score for LLFLYSLNLSRHLY
0.71

Give amyloid nucleation score for PGSGCNVFKL
-0.403

Give amyloid nucleation score for CLVPAQGCYYGYLLTLMVER
-0.264

Give amyloid nucleation score for IYNLNVISSVCESTRCRQTA
7.08

Give amyloid nucleation score for TLAGRCINDCILEGDMSRCF
2.18

Give amyloid nucleation score for IVIAVMSGSYVSLKSWFLRH
-1.5

Give amyloid nucleation score for VLVGCLASQRVISENKGCKC
0.722

Give amyloid nucleation score for SEGIPPQFFRYTAGASNLDT
0.306

Give amyloid nucleation score for TDIFSNISYQSGQPATIDYH
0.176

Give amyloid nucleation score for CCLIHS
1.38

Give amyloid nucleation score for CESCAACMRHYRWLGFQSYI
-1.5

Give amyloid nucleation score for NNLVFHGSKHNIKVRRMEMG
-1.14

Give amyloid nucleation score for VVVFVSE
0.997

Give amyloid nucleation score for INSTEIPFDPAVKL
-0.908

Give amyloid nucleation score for YTTHLCLGAVSLYYVSGYTR
2.44

Give amyloid nucleation score for YIHGGVMCKDPAPFSYFASI
-0.114

Give amyloid nucleation score for SRYWKFRCTFSTKFESTKRS
3.95

Give amyloid nucleation score for IIYNAKE
0.367

---

Method: amyloid nucleation score (Sup35N fusion, yeast selection) (log enrichment); library NNK1; higher = more nucleation; inactive = no reads after selection
Measured Metric: amyloid nucleation score

Look over these answered cases.
Give amyloid nucleation score for LRKNSPTFRGSPCQQWYVER
1.27

Give amyloid nucleation score for CDRFWMELG
-0.267

Give amyloid nucleation score for LLLFFNYNLSVIWWVYGRKS
1.23

Give amyloid nucleation score for KCMTIAWIQSSVSAILLLNC
-0.181

Give amyloid nucleation score for THCCSRYTPERVC
0.47

New cases:
Give amyloid nucleation score for LNSSIYDLSHTVAGCHPALT
-0.293

Give amyloid nucleation score for KVHKLIDNYMLRSRWY
-0.139

---

Method: amyloid nucleation score (Sup35N fusion, yeast selection) (log enrichment); library NNK3; higher = more nucleation; inactive = no reads after selection
Measured Metric: amyloid nucleation score

Look over these answered cases.
Give amyloid nucleation score for PRSVVMYNNFINWYKTHKYY
1.62

Give amyloid nucleation score for GTAIIEGTM
inactive

Give amyloid nucleation score for VTVQLCSNLIMGTWRTRNVL
inactive

Give amyloid nucleation score for IGRAIVHWYWFSSL
inactive

Give amyloid nucleation score for CYVFIEDLTDGMSCRMLFSH
inactive

Give amyloid nucleation score for CCGEHRVGQWV
0.157

New cases:
Give amyloid nucleation score for MTTVKTDCFSQSRYYRHWET
inactive

Give amyloid nucleation score for NDNSSATRSHSGLATRGGLV
inactive

Give amyloid nucleation score for VFNSSKDLVSEKEPLRYMIG
inactive

Give amyloid nucleation score for MDRRNGNRN
inactive

Give amyloid nucleation score for SNPLQGDSLRSVLSCNSIYF
inactive

Give amyloid nucleation score for KVSYSQTPISGRTDTPVPDR
0.294

Give amyloid nucleation score for SPQGTVCNQSIFVALPLRVG
inactive

Give amyloid nucleation score for VFLILFVLPLFYLNDSPGCA
inactive

Give amyloid nucleation score for ECLRLDCGTSRLYYYHLITM
0.814

Give amyloid nucleation score for STASILFIGVKYVM
0.889

Give amyloid nucleation score for LCRNWVR
inactive

Give amyloid nucleation score for SRALDGYKVPRFWIVRARGR
inactive

Give amyloid nucleation score for KDLWCSDSRS
inactive

Give amyloid nucleation score for RFISEYCMFENKEMVEPSFG
inactive

Give amyloid nucleation score for NFTVFYLRC
1.67

Give amyloid nucleation score for SCNQKMGHLNFCNFFWTLTV
inactive

Give amyloid nucleation score for LSFVCTEETHGTNDSAGYNF
inactive

Give amyloid nucleation score for NVYTYIRPRRVYK
inactive

Give amyloid nucleation score for DMSSSGITGTEFRCNYYHEY
inactive

Give amyloid nucleation score for AVYCPINLLAF
inactive

Give amyloid nucleation score for LSFCVVSTGRCAAMEN
inactive

Give amyloid nucleation score for NSIFSVFIGMMPCLGSMENI
3.1

Give amyloid nucleation score for MLCFKPKPVRARNPGNILSH
inactive

Give amyloid nucleation score for GEYFCRNLNHID
inactive

---

Method: amyloid nucleation score (Sup35N fusion, yeast selection) (log enrichment); library NNK3; higher = more nucleation; inactive = no reads after selection
Decide by amyloid nucleation score: equal to or exceeding 1 means 1, less means -1.

Check if amyloid nucleation score >= 1 (inclusive). Item: FFVQSGIIEELYTW
-1

Check if amyloid nucleation score >= 1 (inclusive). Item: LFQKKFILQVYNCLFSYYFN
1

Check if amyloid nucleation score >= 1 (inclusive). Item: LGYTQSVTVMRLMSQYKKAG
-1

Check if amyloid nucleation score >= 1 (inclusive). Item: LADLNTTNIVIGQCCFFYRL
1

Check if amyloid nucleation score >= 1 (inclusive). Item: KAYISVIGKLDYQNFSMKRF
1

Check if amyloid nucleation score >= 1 (inclusive). Item: TLSLACGSYVQCSMEFLSSG
1

Check if amyloid nucleation score >= 1 (inclusive). Item: FSGGCSVYSMQLFLS
1

Entry source: the supplement of paper PMC12042874
